metric name: melting point

Reference set, count: 2
INSERT INTO assay_data (molecule, metric_name, observed_measurement) VALUES
  ('O=C(Nc1ccc2[nH]c(CNCC3CCOCC3)cc2c1)c1ccc(OCC2CC2)cc1', 'melting point', '160 °C'),
  ('O=C1NCC(Cc2ccccc2)C2=C1N=C1N=C(N3CCOCC3)NN1C2 (configuration not stated)', 'melting point', '315 to 317 °C');

# input for lookup
Prompt: Please report melting point for the following molecule: `Cc1nc(N2CCN(Cc3ccc(OC(F)(F)F)cc3)C2=O)sc1C(=O)NCCc1cccnc1`
Response: 172 to 173 °C

###

# melting point annotations

Answered cases to consult:
INSERT INTO results (molecule, observed_measurement) VALUES
  ('C/C(=C\c1ccc(OC(C)C)cc1Oc1ncc(C(F)(F)F)cc1Cl)C(=O)O', '114 °C'),
  ('CC(=O)N1C(=O)N(c2ccc(C#N)c(C(F)(F)F)c2)C(=O)C1(C)C', '129 to 130 °C'),
  ('CC(C)(C=O)CN1CCN(CC(C)(C)C=O)C1=O', '78 to 80 °C'),
  ('CC(C)=CCN(CC=C(C)C)Cc1noc(-c2ncn3c2[C@@H]2CCCN2C(=O)c2c(Cl)cccc2-3)n1', '137 to 140 °C'),
  ('CN(C)C(=O)C1(c2cc(C#N)ccc2O)CCCC1', '144 to 146 °C');

Prompt: Answer with the recorded melting point for the molecule listed here: `CCCn1nc2c(N)nc3ccccc3c2c1CC(C)(C)NC(=O)c1ccc(F)cc1`
Response: 168 to 169 °C

Prompt: Give recorded melting point. `NNc1ncccc1-c1ccccn1`
Response: 64 to 65 °C

###

metric name: melting point

// below: answered compounds
INSERT INTO assay_data (compound, observed_measurement) VALUES
  ('O=C(NCCCCCCNC(=O)c1ccc(Oc2ccccc2)cc1)c1ccc(Oc2ccccc2)cc1', '183 to 184 °C'),
  ('CCCOc1nc2ccccc2[nH]1', '163 to 164 °C'),
  ('CCOC(=O)c1c(N=[N+]=[N-])[nH]c(=O)c(I)c1Oc1cc(C)cc(C)c1', '216 to 218 °C');

Prompt: Return value of melting point for input `CC(=O)Nc1ccccc1C(=O)Nc1ccc(N2CCN3CCC2CC3)cc1` , no commentary.
Response: 191 °C

Prompt: Input `CSC1=C(c2cccc3sccc23)N2CCN=C2S1` , output reported melting point.
Response: 104 to 107 °C

Prompt: Supply reported melting point belonging to this compound: `CCCCCCN=C1SC(=CC(=O)O)C(=O)N1CCCCCC`
Response: 66 to 69 °C

Prompt: Read off the recorded melting point for `CCCOc1ccn2nc(-c3ccccc3)c(-c3ccc(=O)n(C(C)C)n3)c2c1`
Response: 162 °C

Prompt: Please look at this compound and report its melting point: COc1cc2c(c(OC)c1)C1CCC3(C)C(O)CCC3C1CC2 (stereo not given)
Response: 53 to 55 °C

Prompt: Fill in reported melting point for this entry: `Cc1c(C#N)ncn1-c1cccc(O)c1`
Response: 205 to 207 °C

Prompt: Supply recorded melting point for COC(=O)C1=C(C)NC(C)=C(C(=O)OCCBr)C1c1cccc(Cl)c1Cl (stereo not given) here.
Response: 180 to 182 °C

Prompt: Give the reported value of melting point for this record: `CCCCCCCCCCCCCCCCCC(=O)OC1CC(C)(C)N(OC(C)=O)C(C)(C)C1`
Response: 63 to 70 °C

###

metric name: melting point

Look over these answered cases.
INSERT INTO assay_data (compound, observed_measurement) VALUES
  ('CC(=O)Cc1cccc(S(N)(=O)=O)c1', '155 to 157 °C'),
  ('CC(=O)NC[C@H]1CN(c2ccc(N3CCSC3)c(F)c2)C(=O)O1', '103 to 105 °C'),
  ('CC1(Br)CCc2cc3c(cc2C1=O)CCO3 (stereo not drawn)', '95 to 98 °C'),
  ('CC(=O)C1Cc2cc(CCN3CCC(c4noc5cc(F)ccc45)CC3)sc2CN1 (stereo not drawn)', '170 to 172 °C'),
  ('Cc1noc(-c2cc(O)c(O)c([N+](=O)[O-])c2)n1', '201 to 202 °C');

Prompt: State its melting point for this compound: `CCCc1nn(CC)c2c(=O)[nH]c(-c3cc(S(=O)(=O)N4CCN(CCO)CC4)ccc3OCC)nc12`
Response: 191 to 193 °C

Prompt: Kindly indicate its recorded melting point. Item: OC1(c2ccc(Cl)cc2)CCCNC12CCCCC2 (stereo not drawn)
Response: 158 to 164 °C

Prompt: Consider the compound `CCN(CC)CCOc1ccc(Nc2ncc3c(n2)N(c2cccc(CCN(C)C)c2)C(=O)N(c2ccc(Cl)cc2Cl)C3)cc1` . State its measured melting point.
Response: 92 °C

###

# Lookup of reported melting point keyed by entry

# annotated cases, reported melting point shown
INSERT INTO results (molecule, observed_measurement) VALUES
  ('CSCCSc1c(O)cc(C)oc1=O', '81 to 83 °C'),
  ('Cc1cn(-c2cc(NC(=O)c3ccc(Cl)c(C#Cc4ccc(NC5CC5)nn4)c3)cc(C(F)(F)F)c2)cn1', '213 to 215 °C'),
  ('Cn1c(S)nc(-c2ccncc2)cc1=O', '250 to 252 °C');

Prompt: Return melting point for the following molecule: `COC(=O)c1cnc(N2CCN(c3nc4ccc(C(F)(F)F)cc4[nH]3)CC2)c(Cl)c1`
Response: 153 to 159 °C

Prompt: Check the records and state melting point for `COC(=O)C=CC(=S)c1ccc(-c2ccccc2)cc1`
Response: 85 to 86.5 °C

Prompt: Quick one: give measured melting point for `C=Cc1ccc(OCc2ccccc2)cc1OCC(=O)c1ccc(OC)cc1`
Response: 93 to 94 °C

Prompt: Given `Cc1c(C(=O)c2cccc(O)c2)sc(N)c1C(=O)OC(C)(C)C` , respond with its melting point.
Response: 169 to 172 °C

Prompt: Return melting point for the following molecule: `CC(C)(C)C(=O)Nc1cc(Cl)ccc1Cl`
Response: 74 to 76 °C

###

Below, each entry is listed with its recorded melting point.

INSERT INTO results (compound_structure, observed_measurement) VALUES
  ('CN(C[C@@H](CCO)c1ccc(Cl)c(Cl)c1)C(=O)c1ccccc1', '123 to 125 °C'),
  ('O=c1c(O)cn(-c2ccccc2F)nc1-c1ccnn1-c1ccccc1', '218 to 220 °C');

Prompt: Return the recorded melting point value; entry: `CN1C(C(=O)Nc2ccc(Cl)ccc2=O)=C(O)c2sccc2S1(=O)=O`
Response: 243 to 245 °C

###

Measured melting point of individual entries

INSERT INTO assay_data (molecule, observed_measurement) VALUES
  ('Cc1nc(-c2ccc(C=CC3(O)CN4CCC3CC4)cc2)no1 (stereo unspecified)', '188 to 189 °C'),
  ('O=C(O)CSCCCCCNS(=O)(=O)c1ccc(Cl)cc1', '93 to 94 °C'),
  ('COc1ccc(-c2cnc3[nH]cc(C(=O)C(C)(C)C)c3n2)cc1N1CCCC1', '211 to 213 °C'),
  ('Clc1cc(-c2ccccc2)nc2nn(-c3ccccc3)cc12', '175 to 177 °C'),
  ('CC(=O)Oc1c(Cl)cc(Cl)cc1C1(OC(C)=O)C(=O)c2ccccc2C1=O', '178 to 180 °C');

Turning now to a further molecule:
Prompt: Supply melting point value. Item: `O=c1[nH]c(S)ncc1O`
Response: > 300 °C

###

Reported melting point is given for each of the following compounds.

Please review the following examples before continuing.
INSERT INTO results (compound, observed_measurement) VALUES
  ('O=C(CCO)N[C@H]1CC[C@H](CCN2CCN(c3nccc4c3CCO4)CC2)CC1', '173 °C'),
  ('Cc1c(Cl)ccc2cc(C(F)(F)F)c(C(F)(F)F)nc12', '70 to 73 °C'),
  ('C=CCc1c(SC(C)=O)[nH]c(-c2ccc(Cl)cc2)c1-c1ccc(Cl)cc1', '131 to 132 °C'),
  ('NS(=O)(=O)c1cc2c(s1)SC(CCO)CN2 (centres undefined)', '145 to 147 °C'),
  ('CCN(c1ccc(Br)cc1)S(=O)(=O)C(F)(F)F', '59 to 60 °C'),
  ('CN(CCOc1ccc(CC(Sc2ccccc2)C(=O)O)cc1)c1nc2ccccc2o1 (centres undefined)', '144 to 147 °C'),
  ('C=Cc1ccc(CSCCO)cc1', '44 to 45.5 °C'),
  ('Cc1sc(Nc2cccc(C#N)n2)nc1-c1cn[nH]c1', '331 °C');

Prompt: Find the measured melting point of `O=Cc1cnc(-c2ccccc2Cl)s1` and report it.
Response: 95 to 97 °C

Prompt: Identify the reported melting point for the following entry. `Cc1nn(-c2cc3nc(S)sc3cc2F)c(=O)n1C(F)F`
Response: 248 to 250 °C

Prompt: Tell me measured melting point for `COc1ccc(-c2cc3cc(F)c(F)cc3[nH]2)cc1NCc1cccs1` please.
Response: 190 to 192 °C

Prompt: Recall and state the measured melting point for `COC(=O)[C@H]1CC[C@H](NC(=O)c2cc(-c3ccc(C(=N)N)cc3)nn(Cc3ccccc3)c2=O)CC1` .
Response: 168 to 173 °C

Prompt: Output measured melting point for this item: `Cc1cc(Nc2ncnc3ccn(CCNC(=O)CS(C)(=O)=O)c23)ccc1Oc1cccc(OC(F)(F)F)c1`
Response: 106 to 108 °C

Prompt: Please indicate melting point recorded for `N#Cc1sc(Cl)c(Cl)c1Cl`
Response: 63 to 64 °C

Prompt: Answer with reported melting point of O=C1N(Cc2ccc(C(F)(F)F)o2)c2cc3c(cc2C12COc1cc4c(cc12)OCCO4)OCCO3 (centres undefined)
Response: 176 to 178 °C

Prompt: Please report melting point for the following compound: CCCCCCCCCCOc1ccc(-c2ccc(C#CCCC(C)OC)cc2)cc1 (centres undefined)
Response: 97 to 99 °C

Prompt: Dear colleague, please send me the reported melting point for COC(=O)C(Cl)C(Cl)c1ccccc1 (centres undefined) when you can.
Response: 164 to 165 °C

Prompt: Report measured melting point; entry is N#CC(SCCc1ccc2c(c1)OCO2)C(=O)O (centres undefined)
Response: 106 to 107 °C

Prompt: Give the value of melting point reported for the following: `Nc1ncc(-c2cc(N3CCOCC3)nc(-n3c(C(F)F)nc4ccccc43)n2)cn1`
Response: 281 to 285 °C
